Test: Bioavailability in Dogs: plasma concentrations of parent acid by LC/MS/MS
Assay type: in vivo
Conditions: both sexes, dog, iv; Compound A in plasma, Beagle dogs, 1 mg/kg
metric: AUC (ng·h/mL)

sample_smiles	metric	recorded_number
O=C(O)[C@@H]1C[C@H]2C[C@@H](CCc3nn[nH]n3)CC[C@H]2CN1	AUC	4220

====

Test: Bioavailability in Cynomolgus Monkeys: plasma concentrations of parent acid by LC/MS/MS
Type: in vivo
Conditions: both sexes, cynomolgus monkey, iv, 0.3 mg/kg, Compound A in plasma, .3 mg/kg
metric: Cmax (ng/mL)

sample_smiles	recorded_number
O=C(O)[C@@H]1C[C@H]2C[C@@H](CCc3nn[nH]n3)CC[C@H]2CN1	1620
